Just for reference, ChEMBL document CHEMBL1127346 is where these values come from.

- Test system: Melatonin receptor (Ovis aries)
- measurement_description: Biphasic (high affinity) inhibition of melatonin receptor of ovine pars tuberalis membrane
assay_endpoint: Log KH
Answer as a number with no unit attached.

Input: # input molecule: COc1ccc2[nH]cc(CCNC(=O)C3CCC3)c2c1 ; wanted: its Log KH
Output: -10.4

Input: Moving on to the next molecule: CCCCCC(=O)NCCc1cccc2ccc(OC)cc12
Output: -9.09

Input: Please give the result for CCC(=O)NCCc1cccc2ccc(OC)cc12 too.
Output: -11.5

Input: Input CCCC(=O)NCCc1c[nH]c2cc(F)c(OC)cc12
Output: -13.3

Input: Same thing, different molecule: COc1ccc2[nH]cc(CCNC(=O)C(F)(F)F)c2c1
Output: -13.3

Input: Proceed to COc1ccc2cccc(CCNC(=O)C3CCC3)c2c1
Output: -12.4

Input: Next molecule: COc1ccc2cccc(CCNC(=O)CI)c2c1
Output: -12.6

Input: Now consider COc1ccc2c(CCNC(=O)C3CC3)cccc2c1 and answer again.
Output: -12.3

Input: // next record COc1ccc2cccc(CCNC=O)c2c1
Output: -13.1

Input: Now consider C/C=C/C(=O)NCCc1cccc2ccc(OC)cc12 .
Output: -14.5

Input: Next up: CCCCC(=O)NCCc1cccc2ccc(OC)cc12
Output: -11.2

Input: Now the molecule COc1ccc2cccc(CCNC(=O)C(C)C)c2c1
Output: -12.2
